# Test system: circulating lymphocytes
# PROCEDURE_SUMMARY: Lymphopenia assay: measurement of circulating lymphocytes after oral gavage
# Assay type: in vivo, Mice (C57bl/6 male)
# CONDITIONS_USED: mice, oral gavage 0.5 and 5 mg/kg in 30% HPCD, blood 5 and 24 hours after administration
READOUT_LABEL: Lymphopenia (ED50 mg/kg)

INSERT INTO results (compound, target_or_test_system, measurement) VALUES
  ('CC(N)(CO)c1ccc2c(C(F)(F)F)c(O[C@H]3CC[C@H](C(C)(C)C)CC3)ccc2n1 (relative stereo) [Example 27]', 'circulating lymphocytes', '>5 mg/kg'),
  ('CC(N)(CO)c1ccc2c(C(F)(F)F)c(O[C@H]3CC[C@H](C(C)(C)C)CC3)ccc2n1 (relative stereo) [Example 26]', 'circulating lymphocytes', '<0.5 mg/kg'),
  ('CC(N)(CO)c1ccc2cc(O[C@H]3CC[C@H](C(C)(C)C)CC3)ccc2n1 (relative stereo) [Example 23]', 'circulating lymphocytes', '<0.5 mg/kg');
